# target.desc: UniProtKB Q12809
# Sequence (Q12809 whole entry): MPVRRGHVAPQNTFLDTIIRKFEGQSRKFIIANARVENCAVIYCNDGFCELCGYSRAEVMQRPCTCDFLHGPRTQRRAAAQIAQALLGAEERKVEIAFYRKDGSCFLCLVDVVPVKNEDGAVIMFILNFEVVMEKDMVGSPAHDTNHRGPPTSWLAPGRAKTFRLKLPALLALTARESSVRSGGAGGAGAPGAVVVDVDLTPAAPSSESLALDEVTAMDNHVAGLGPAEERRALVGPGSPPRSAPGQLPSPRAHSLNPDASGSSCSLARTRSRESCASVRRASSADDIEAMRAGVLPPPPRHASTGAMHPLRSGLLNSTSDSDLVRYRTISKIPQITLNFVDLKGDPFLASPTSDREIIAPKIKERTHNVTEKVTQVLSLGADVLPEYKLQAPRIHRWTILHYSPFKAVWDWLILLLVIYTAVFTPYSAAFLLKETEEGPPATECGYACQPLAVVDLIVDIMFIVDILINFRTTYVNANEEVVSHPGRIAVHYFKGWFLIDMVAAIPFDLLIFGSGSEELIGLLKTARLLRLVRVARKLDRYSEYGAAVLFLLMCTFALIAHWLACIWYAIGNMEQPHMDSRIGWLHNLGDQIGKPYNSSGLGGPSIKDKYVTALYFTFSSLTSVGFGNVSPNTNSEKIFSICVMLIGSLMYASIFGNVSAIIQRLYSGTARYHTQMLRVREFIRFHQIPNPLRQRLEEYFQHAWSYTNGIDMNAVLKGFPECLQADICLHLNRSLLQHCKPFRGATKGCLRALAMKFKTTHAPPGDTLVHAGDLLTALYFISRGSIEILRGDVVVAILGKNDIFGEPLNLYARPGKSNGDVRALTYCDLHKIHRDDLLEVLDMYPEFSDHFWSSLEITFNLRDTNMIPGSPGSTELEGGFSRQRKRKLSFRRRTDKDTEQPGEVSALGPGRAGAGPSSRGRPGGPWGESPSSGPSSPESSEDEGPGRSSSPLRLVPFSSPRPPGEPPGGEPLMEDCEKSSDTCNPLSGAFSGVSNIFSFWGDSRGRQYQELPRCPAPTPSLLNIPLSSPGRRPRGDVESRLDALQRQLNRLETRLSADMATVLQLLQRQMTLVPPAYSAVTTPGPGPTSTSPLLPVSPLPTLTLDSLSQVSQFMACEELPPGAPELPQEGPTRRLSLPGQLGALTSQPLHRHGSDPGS
# measurement.protocol: Inhibition of human ERG by automatic Q-patch assay

smiles: CC/C(=C(/c1ccc(/C=C/C(=O)O)cc1)c1cc2ccccc2[nH]1)c1ccc(Cl)cc1C(F)(F)F
IC50: > 30 µM

---

# target.desc: Estrogen receptor (Homo sapiens, UniProt P03372)
# Sequence (P03372 whole entry): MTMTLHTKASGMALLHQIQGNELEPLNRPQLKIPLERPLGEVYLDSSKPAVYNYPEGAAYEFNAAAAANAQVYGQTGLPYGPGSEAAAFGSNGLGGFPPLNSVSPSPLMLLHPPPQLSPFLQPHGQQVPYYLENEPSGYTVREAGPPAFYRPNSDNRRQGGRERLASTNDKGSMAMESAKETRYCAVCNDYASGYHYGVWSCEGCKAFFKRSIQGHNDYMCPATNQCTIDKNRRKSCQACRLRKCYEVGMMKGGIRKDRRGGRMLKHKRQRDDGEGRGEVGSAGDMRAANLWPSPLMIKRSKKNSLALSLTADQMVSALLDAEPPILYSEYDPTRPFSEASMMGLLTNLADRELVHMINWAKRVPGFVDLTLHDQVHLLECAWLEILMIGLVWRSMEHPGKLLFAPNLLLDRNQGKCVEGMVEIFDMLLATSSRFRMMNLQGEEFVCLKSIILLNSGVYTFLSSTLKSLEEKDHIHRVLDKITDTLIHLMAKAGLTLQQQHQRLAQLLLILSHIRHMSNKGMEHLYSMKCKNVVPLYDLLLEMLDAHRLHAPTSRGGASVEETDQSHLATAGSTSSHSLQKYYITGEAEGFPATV
# measurement.protocol: Induction of estrogen receptor degradation in human MCF7 cells
# Format: cell-based
Lab note: compare IC50 with 30 nM, writing t if less and f if equal or more.

smiles: CC/C(=C(/c1ccc(/C=C/C(=O)O)cc1)c1cc2ccccc2[nH]1)c1ccc(Cl)c(C(F)(F)F)c1
target.desc: Estrogen receptor (Homo sapiens, UniProt P03372)
label.class: f
//
smiles: CC/C(=C(/c1ccc(/C=C/C(=O)O)cc1)c1cc2ccccc2[nH]1)c1ccc(C#N)cc1Cl
target.desc: Estrogen receptor (Homo sapiens, UniProt P03372)
label.class: f
//
smiles: CC/C(=C(/c1ccc(/C=C/C(=O)O)cc1)c1cc2ccccc2[nH]1)c1ccc(C#N)cc1
target.desc: Estrogen receptor (Homo sapiens, UniProt P03372)
label.class: f
//
smiles: CC/C(=C(/c1ccc(/C=C/C(=O)O)cc1)c1cc2ccccc2[nH]1)c1ccccc1C#N
target.desc: Estrogen receptor (Homo sapiens, UniProt P03372)
label.class: t
//
smiles: CC/C(=C(/c1ccc(/C=C/C(=O)O)cc1)c1cc2ccccc2[nH]1)c1ccc(C(F)(F)F)cc1Cl
target.desc: Estrogen receptor (Homo sapiens, UniProt P03372)
label.class: t
//
smiles: CC/C(=C(/c1ccc(/C=C/C(=O)O)cc1)c1cc2ccccc2[nH]1)c1ccccc1OC(F)(F)F
target.desc: Estrogen receptor (Homo sapiens, UniProt P03372)
label.class: f
//
smiles: CC/C(=C(/c1ccc(/C=C/C(=O)O)cc1)c1cc2ccccc2[nH]1)c1ccc(F)cc1Cl
target.desc: Estrogen receptor (Homo sapiens, UniProt P03372)
label.class: t
//
smiles: CC/C(=C(/c1ccc(/C=C/C(=O)O)cc1)c1cc2ccccc2[nH]1)c1ccc(Cl)cc1
target.desc: Estrogen receptor (Homo sapiens, UniProt P03372)
label.class: f
//
smiles: CC/C(=C(/c1ccc(/C=C/C(=O)O)cc1)c1cc2ccccc2[nH]1)c1cccc(Cl)c1Cl
target.desc: Estrogen receptor (Homo sapiens, UniProt P03372)
label.class: f
//
smiles: CC/C(=C(/c1ccc(/C=C/C(=O)O)cc1)c1cc2ccccc2[nH]1)c1ccc(C(F)(F)F)cc1
target.desc: Estrogen receptor (Homo sapiens, UniProt P03372)
label.class: f
//
smiles: CC/C(=C(/c1ccc(/C=C/C(=O)O)cc1)c1cc2ccccc2[nH]1)c1ccc(Cl)cc1C#N
target.desc: Estrogen receptor (Homo sapiens, UniProt P03372)
label.class: t
//
smiles: CC/C(=C(/c1ccc(/C=C/C(=O)O)cc1)c1cc2ccccc2[nH]1)c1cccc(OC(F)(F)F)c1
target.desc: Estrogen receptor (Homo sapiens, UniProt P03372)
label.class: f
//
smiles: CC/C(=C(/c1ccc(/C=C/C(=O)O)cc1)c1cc2ccccc2[nH]1)c1ccccc1C
target.desc: Estrogen receptor (Homo sapiens, UniProt P03372)
label.class: t
//
smiles: CC/C(=C(/c1ccc(/C=C/C(=O)O)cc1)c1cc2ccccc2[nH]1)c1ccc(Cl)cc1Cl
target.desc: Estrogen receptor (Homo sapiens, UniProt P03372)
label.class: t
//
smiles: CC/C(=C(/c1ccc(/C=C/C(=O)O)cc1)c1cc2ccccc2[nH]1)c1cc(Cl)ccc1Cl
target.desc: Estrogen receptor (Homo sapiens, UniProt P03372)
label.class: t
//
smiles: CC/C(=C(/c1ccc(/C=C/C(=O)O)cc1)c1cc2ccccc2[nH]1)c1cccc(C(F)(F)F)c1
target.desc: Estrogen receptor (Homo sapiens, UniProt P03372)
label.class: f
//
smiles: CC/C(=C(/c1ccc(/C=C/C(=O)O)cc1)c1cc2ccccc2[nH]1)c1ccc(Cl)c(C)c1
target.desc: Estrogen receptor (Homo sapiens, UniProt P03372)
label.class: f
//
smiles: CC/C(=C(/c1ccc(/C=C/C(=O)O)cc1)c1cc2ccccc2[nH]1)c1ccccc1
target.desc: Estrogen receptor (Homo sapiens, UniProt P03372)
label.class: f
